Each item that follows carries a reported relative viability.
System: NCI-H661
Test: relative viability (nuclei count vs DMSO), 5 days (fraction); higher = more cells survive
Details: first compound 4 µM
// return just the number, without any unit appended

Below are worked cases with known answers.
- Compound: "C[C@@H]1CN(CC(=O)Nc2ccc3c(c2)Cc2cccc(-c4cc(=O)cc(N5CCOCC5)o4)c2S3)C[C@H](C)O1 + O=C(c1cc(Cc2n[nH]c(=O)c3ccccc23)ccc1F)N1CCN(C(=O)C2CC2)CC1 [Olaparib] (partner 8 µM)"
  relative viability: 0.622
- Compound: "COc1cc(N2CCC(C(N)=O)CC2)ccc1Nc1nc(N)c(Cl)c(Nc2ccccc2S(=O)(=O)C(C)C)n1 [HG-5-88-01] + CC(=O)Nc1cccc(-n2c(=O)n(C3CC3)c(=O)c3c(Nc4ccc(I)cc4F)n(C)c(=O)c(C)c32)c1 [Trametinib] (partner 0.02 µM)"
  relative viability: 0.608
- Compound: "C[C@@H]1CN(CC(=O)Nc2ccc3c(c2)Cc2cccc(-c4cc(=O)cc(N5CCOCC5)o4)c2S3)C[C@H](C)O1 + CS(=O)(=O)CCNCc1ccc(-c2ccc3ncnc(Nc4ccc(OCc5cccc(F)c5)c(Cl)c4)c3c2)o1 [Lapatinib] (partner 2 µM)"
  relative viability: 0.411

Now, please, on to the next compound.
GET /values?item= C[C@@H]1CN(CC(=O)Nc2ccc3c(c2)Cc2cccc(-c4cc(=O)cc(N5CCOCC5)o4)c2S3)C[C@H](C)O1 + COc1cccc2cc(-c3nc([C@H]4CC[C@H](C(=O)O)CC4)n4ncnc(N)c34)[nH]c12 [OSI-027] (partner 0.5 µM) &system= NCI-H661 returns relative viability: 0.666

----------
Test system: NCI-H441
Experiment: relative viability (nuclei count vs DMSO), 5 days (fraction); higher = more cells survive
Conditions: first compound 0.3162 µM
Readout: relative viability

Below are worked cases with known answers.
- Compound: "CC(C)Oc1cc(Nc2nc(N[C@@H](C)c3ccc(F)cn3)ncc2Cl)n[nH]1 [AZ23] + O=C(CCCCCCC(=O)Nc1ccccc1)NO [Vorinostat] (partner 1 µM)"
  relative viability: 0.738
- Compound: "CC(C)Oc1cc(Nc2nc(N[C@@H](C)c3ccc(F)cn3)ncc2Cl)n[nH]1 [AZ23] + O=C(c1cc(Cc2n[nH]c(=O)c3ccccc23)ccc1F)N1CCN(C(=O)C2CC2)CC1 [Olaparib] (partner 8 µM)"
  relative viability: 0.494

GET /values?item= CC(C)Oc1cc(Nc2nc(N[C@@H](C)c3ccc(F)cn3)ncc2Cl)n[nH]1 [AZ23] + Cc1nc(Nc2ncc(C(=O)Nc3c(C)cccc3Cl)s2)cc(N2CCN(CCO)CC2)n1 [Dasatinib] (partner 0.075 µM) &system= NCI-H441 returns relative viability: 0.699

----------
Each item that follows carries a reported relative viability.
Test system: ABC-1
Experiment: relative viability (nuclei count vs DMSO), 5 days (fraction); higher = more cells survive
Details: first compound 1.265 µM

Below are worked cases with known answers.
- Molecule: "COc1cc(N2CCC(C(N)=O)CC2)ccc1Nc1nc(N)c(Cl)c(Nc2ccccc2S(=O)(=O)C(C)C)n1 [HG-5-88-01] + O=C(CCCCCCC(=O)Nc1ccccc1)NO [Vorinostat] (partner 1 µM)"
  Tested system: "ABC-1"
  relative viability: 1.04
- Molecule: "Clc1ccc(Nc2nnc(Cc3ccncc3)c3ccccc23)cc1 [Vatalanib] + Cc1nc(Nc2ncc(C(=O)Nc3c(C)cccc3Cl)s2)cc(N2CCN(CCO)CC2)n1 [Dasatinib] (partner 0.075 µM)"
  Tested system: "ABC-1"
  relative viability: 0.514
- Molecule: "Clc1ccc(Nc2nnc(Cc3ccncc3)c3ccccc23)cc1 [Vatalanib] + NC(=O)Nc1cc(-c2cccc(F)c2)sc1C(=O)N[C@H]1CCCNC1 [AZD7762] (partner 0.2 µM)"
  Tested system: "ABC-1"
  relative viability: 0.853
- Molecule: "Clc1ccc(Nc2nnc(Cc3ccncc3)c3ccccc23)cc1 [Vatalanib] + CC(C)C[C@H](NC(=O)[C@H](Cc1ccccc1)NC(=O)c1cnccn1)B(O)O [Bortezomib] (partner 0.002 µM)"
  Tested system: "ABC-1"
  relative viability: 0.357
- Molecule: "COc1cc(N2CCC(C(N)=O)CC2)ccc1Nc1nc(N)c(Cl)c(Nc2ccccc2S(=O)(=O)C(C)C)n1 [HG-5-88-01] + COc1cccc2cc(-c3nc([C@H]4CC[C@H](C(=O)O)CC4)n4ncnc(N)c34)[nH]c12 [OSI-027] (partner 0.5 µM)"
  Tested system: "ABC-1"
  relative viability: 0.348
- Molecule: "Clc1ccc(Nc2nnc(Cc3ccncc3)c3ccccc23)cc1 [Vatalanib] + CS(=O)(=O)CCNCc1ccc(-c2ccc3ncnc(Nc4ccc(OCc5cccc(F)c5)c(Cl)c4)c3c2)o1 [Lapatinib] (partner 2 µM)"
  Tested system: "ABC-1"
  relative viability: 1.23
- Molecule: "Clc1ccc(Nc2nnc(Cc3ccncc3)c3ccccc23)cc1 [Vatalanib] + C[C@]1(O)C[C@@H](c2nc(-c3ccc4ccc(-c5ccccc5)nc4c3)c3c(N)nccn32)C1 [Linsitinib] (partner 1 µM)"
  Tested system: "ABC-1"
  relative viability: 0.659
- Molecule: "Clc1ccc(Nc2nnc(Cc3ccncc3)c3ccccc23)cc1 [Vatalanib] + COc1cccc2cc(-c3nc([C@H]4CC[C@H](C(=O)O)CC4)n4ncnc(N)c34)[nH]c12 [OSI-027] (partner 0.5 µM)"
  Tested system: "ABC-1"
  relative viability: 0.381
- Molecule: "COc1cc(N2CCC(C(N)=O)CC2)ccc1Nc1nc(N)c(Cl)c(Nc2ccccc2S(=O)(=O)C(C)C)n1 [HG-5-88-01] + CC(=O)c1c(C)c2cnc(Nc3ccc(N4CCNCC4)cn3)nc2n(C2CCCC2)c1=O [Palbociclib] (partner 0.5 µM)"
  Tested system: "ABC-1"
  relative viability: 0.583

Now, please, on to the next molecule.
Lab note: measured relative viability of COc1cc(N2CCC(C(N)=O)CC2)ccc1Nc1nc(N)c(Cl)c(Nc2ccccc2S(=O)(=O)C(C)C)n1 [HG-5-88-01] + CC(C)C[C@H](NC(=O)[C@H](Cc1ccccc1)NC(=O)c1cnccn1)B(O)O [Bortezomib] (partner 0.002 µM) was 0.321

----------
Each item that follows carries a reported relative viability.
Tested on: IA-LM
Assay: relative viability (nuclei count vs DMSO), 5 days (fraction); higher = more cells survive
Conditions: first compound 2.53 µM
// return just the number, without any unit appended

Below are worked cases with known answers.
- Compound: "CCCCCCCCCCCC1=C(O)C(=O)C=C(O)C1=O [Embelin] + CS(=O)(=O)CCNCc1ccc(-c2ccc3ncnc(Nc4ccc(OCc5cccc(F)c5)c(Cl)c4)c3c2)o1 [Lapatinib] (partner 2 µM)"
  Tested system: "IA-LM"
  Readout: "relative viability"
  Meas value: 0.789
- Compound: "CCCCCCCCCCCC1=C(O)C(=O)C=C(O)C1=O [Embelin] + CS(=O)(=O)N1CCN(Cc2cc3nc(-c4cccc5[nH]ncc45)nc(N4CCOCC4)c3s2)CC1 [Pictilisib] (partner 1 µM)"
  Tested system: "IA-LM"
  Readout: "relative viability"
  Meas value: 0.383
- Compound: "CCCCCCCCCCCC1=C(O)C(=O)C=C(O)C1=O [Embelin] + COc1cc2c(Oc3ccc(NC(=O)C4(C(=O)Nc5ccc(F)cc5)CC4)cc3F)ccnc2cc1OCCCN1CCOCC1 [Foretinib] (partner 0.25 µM)"
  Tested system: "IA-LM"
  Readout: "relative viability"
  Meas value: 1.16

GET /values?item= CCCCCCCCCCCC1=C(O)C(=O)C=C(O)C1=O [Embelin] + Cc1nc(NC(=O)N2CCC[C@H]2C(N)=O)sc1-c1ccnc(C(C)(C)C(F)(F)F)c1 [Alpelisib] (partner 2 µM) &system= IA-LM returns relative viability: 0.839

----------
Each item that follows carries a reported relative viability.
System: NCI-H1944
Assay: relative viability (nuclei count vs DMSO), 5 days (fraction); higher = more cells survive
Conditions: first compound 4 µM
// return just the number, without any unit appended

Below are worked cases with known answers.
- Compound: "Clc1ccc(Nc2nnc(Cc3ccncc3)c3ccccc23)cc1 [Vatalanib] + CS(=O)(=O)CCNCc1ccc(-c2ccc3ncnc(Nc4ccc(OCc5cccc(F)c5)c(Cl)c4)c3c2)o1 [Lapatinib] (partner 2 µM)"
  Tested system: "NCI-H1944"
  Readout: "relative viability"
  Meas value: 0.784
- Compound: "C[C@@H]1CN(CC(=O)Nc2ccc3c(c2)Cc2cccc(-c4cc(=O)cc(N5CCOCC5)o4)c2S3)C[C@H](C)O1 + CCNC(=O)c1noc(-c2cc(C(C)C)c(O)cc2O)c1-c1ccc(CN2CCOCC2)cc1 [Luminespib] (partner 0.01 µM)"
  Tested system: "NCI-H1944"
  Readout: "relative viability"
  Meas value: 0.824
- Compound: "C[C@@H]1CN(CC(=O)Nc2ccc3c(c2)Cc2cccc(-c4cc(=O)cc(N5CCOCC5)o4)c2S3)C[C@H](C)O1 + Nc1nc2[nH]cc(CCc3ccc(C(=O)N[C@@H](CCC(=O)O)C(=O)O)cc3)c2c(=O)[nH]1 [Pemetrexed] (partner 0.2 µM)"
  Tested system: "NCI-H1944"
  Readout: "relative viability"
  Meas value: 0.616
- Compound: "C[C@@H]1CN(CC(=O)Nc2ccc3c(c2)Cc2cccc(-c4cc(=O)cc(N5CCOCC5)o4)c2S3)C[C@H](C)O1 + O=C(CCCCCCC(=O)Nc1ccccc1)NO [Vorinostat] (partner 1 µM)"
  Tested system: "NCI-H1944"
  Readout: "relative viability"
  Meas value: 0.637
- Compound: "Clc1ccc(Nc2nnc(Cc3ccncc3)c3ccccc23)cc1 [Vatalanib] + Cc1nc(Nc2ncc(C(=O)Nc3c(C)cccc3Cl)s2)cc(N2CCN(CCO)CC2)n1 [Dasatinib] (partner 0.075 µM)"
  Tested system: "NCI-H1944"
  Readout: "relative viability"
  Meas value: 0.228

Lab note: measured relative viability of COc1cc(N2CCC(C(N)=O)CC2)ccc1Nc1nc(N)c(Cl)c(Nc2ccccc2S(=O)(=O)C(C)C)n1 [HG-5-88-01] + COc1cccc2cc(-c3nc([C@H]4CC[C@H](C(=O)O)CC4)n4ncnc(N)c34)[nH]c12 [OSI-027] (partner 0.5 µM) was 0.251

Lab note: measured relative viability of COc1cc(N2CCC(C(N)=O)CC2)ccc1Nc1nc(N)c(Cl)c(Nc2ccccc2S(=O)(=O)C(C)C)n1 [HG-5-88-01] + O=C(c1cc(Cc2n[nH]c(=O)c3ccccc23)ccc1F)N1CCN(C(=O)C2CC2)CC1 [Olaparib] (partner 8 µM) was 0.466

Lab note: measured relative viability of Clc1ccc(Nc2nnc(Cc3ccncc3)c3ccccc23)cc1 [Vatalanib] + CCNC(=O)c1noc(-c2cc(C(C)C)c(O)cc2O)c1-c1ccc(CN2CCOCC2)cc1 [Luminespib] (partner 0.01 µM) was 0.752

Lab note: measured relative viability of COc1cc(N2CCC(C(N)=O)CC2)ccc1Nc1nc(N)c(Cl)c(Nc2ccccc2S(=O)(=O)C(C)C)n1 [HG-5-88-01] + O=C(CCCCCCC(=O)Nc1ccccc1)NO [Vorinostat] (partner 1 µM) was 0.568

Lab note: measured relative viability of COc1cc(N2CCC(C(N)=O)CC2)ccc1Nc1nc(N)c(Cl)c(Nc2ccccc2S(=O)(=O)C(C)C)n1 [HG-5-88-01] + COc1cc2c(Oc3ccc(NC(=O)C4(C(=O)Nc5ccc(F)cc5)CC4)cc3F)ccnc2cc1OCCCN1CCOCC1 [Foretinib] (partner 0.25 µM) was 0.886

Lab note: measured relative viability of COc1cc(N2CCC(C(N)=O)CC2)ccc1Nc1nc(N)c(Cl)c(Nc2ccccc2S(=O)(=O)C(C)C)n1 [HG-5-88-01] + CC1(C)CCC(c2ccc(Cl)cc2)=C(CN2CCN(c3ccc(C(=O)NS(=O)(=O)c4ccc(N[C@H](CCN5CCOCC5)CSc5ccccc5)c(S(=O)(=O)C(F)(F)F)c4)cc3)CC2)C1 [Navitoclax] (partner 0.5 µM) was 1.04

Lab note: measured relative viability of Clc1ccc(Nc2nnc(Cc3ccncc3)c3ccccc23)cc1 [Vatalanib] + COc1cc2c(Oc3ccc(NC(=O)C4(C(=O)Nc5ccc(F)cc5)CC4)cc3F)ccnc2cc1OCCCN1CCOCC1 [Foretinib] (partner 0.25 µM) was 0.87

Lab note: measured relative viability of C[C@@H]1CN(CC(=O)Nc2ccc3c(c2)Cc2cccc(-c4cc(=O)cc(N5CCOCC5)o4)c2S3)C[C@H](C)O1 + COc1cccc2cc(-c3nc([C@H]4CC[C@H](C(=O)O)CC4)n4ncnc(N)c34)[nH]c12 [OSI-027] (partner 0.5 µM) was 0.336

Source of measurements: the supplement of paper PMC10307832
